assay: soluble on expression in E. coli; label from the status in PepcDB or PDB records
Quantity: soluble on expression in E. coli

INSERT INTO measurements (construct_sequence, test_result) VALUES
  ('ALSGSSGYKFGVLAKIVNYMKTRHQRGDTHPLTLDEILDETQHLDIGLKQKQWLMTEALVNNPKIEVIDGKYAFKPKYNVR', 'soluble'),
  ('SSAKSAISKEIFAPLDERMLGAVQVKRRTKKKIPFLATGGQGEYLTYICLSVTNKKPTQASITKVKQFEGSTSFVRRSQWMLEQLRQVNGIDPNGDSAEFDLLFENAFDQWVASTASEKCTFFQILHHTCQRYLTDRKPEFINCQSKIMGGNSILHSAADSVTSAVQKASQALNERGERLGRAEEKTEDLKNSAQQFAETAHKLAMKHKC', 'soluble'),
  ('MKIVFLECSVELVPRSLWSHPQVLKSARRYGIEPGDLLLDKSLHYNAMAELPAKWKRGRPDILHVALLTTTDSPLYNEGLLRIYFQVYDGRLFEVGTGVRVPKNYERFRGLVAQLLKTERVPPGEGEALIRLHSRSLAEFVEREGRFILMWEKGSPTTTTYVAARALSTGLPIGVGCFPRGEFKRSTLRKASEAYSIMGGAPLKTWGVASRIVYALERLKSPFTLEHHHHHH', 'soluble');

---

experiment: soluble on expression in E. coli; label from the status in PepcDB or PDB records
Quantity: soluble on expression in E. coli

INSERT INTO assay_data (construct_sequence, test_result) VALUES
  ('MGSDKIHHHHHHMFKIDRLRFGTAGIPISTPKPSTIAGIERVRELGLDAMELEFVRGINIKPELAKKIKYVAEKNDIVLTAHAPYYINLNAKEKEKVEASKRRIIQSAERLYEAGGWSVVFHAGYYLKQPKESVYQKILSALKEIQKELMDKGIKVWLRPELTGKPTQFGDLKELVKLSQELELVLPAIDFAHAHARNKGKCNTEEEWREMLALIENELGREALDNMHIHISGIEYGEKGEKRHLNLEESDLKWEDLLKVLKEFRVKGVIISESPNIEGDAILMKKKWEELKI', 'not soluble'),
  ('MSLIAIYVRVSTEEQAIKGSSIDSQIEACIKKAGTKDVLKYADEGFSGELLERPALNRLREDASKGLISQVICYDPDRLSRKLMNQLIIDDELRKRNIPLIFVNGEYANSPEGQLFFAMRGAISEFEKAKIKERTSSGRLQKMKKGMIIKDSKLYGYKFVKEKRTLEILEEEAKIIRMIFNYFTDHKSPFFGRVNGIALHLTQMGVKTKKGEGHHHHHH', 'not soluble'),
  ('MTMSELGSLFEAGYHDILQLLAGQGKSPSGPPFARYFGMSAGTFEVEFGFPVEGGVEGSGRVVTGLTPSGKAASSLYIGPYGEIEAVYDALMKWVDDNGFDLSGEAYEIYLDNPAETAPDQLRTRVSLEHHHHHH', 'not soluble'),
  ('MASIMYTPKDIFEQEFKSSMRGYDKKEVDEFLDDIIKDYETYISTIEELRQENTRLKEEVKQAKKRQEAAQTTVSPAASVSSSRVATTATNFDILKRISRLEKEVFGKQITE', 'not soluble');

---

test: soluble on expression in E. coli; label from the status in PepcDB or PDB records
Quantity: soluble on expression in E. coli

INSERT INTO measurements (construct_sequence, test_result) VALUES
  ('MDKMLEKFEGSILGLSIGDALGMPTEWFTKEEIAEKYGLIDNFVDPKNKFNGILKAGQYTDDTDQTIAILNSFDVRGFNNDIFIKELIKWYNNNPVGMGPTSTKAIEKLIEGDTTGCDSRTCGSSMRVGPLGLFYFGEYDKLKEITIKATKLTHNNDEAIAGALSIAFFVAESVNNVKSEKSIKRCAKFIEDVSYDFSEKILLINDLNSADEAYELFDTGLPAIECVPSAIATFLRTDTFKDGMISCVNAGGDTDSMGSMYGAIAGAYYGVLNIPELWIAGLQNKDLLVDLSKKLYKLRFKKLEHHHHHH', 'soluble'),
  ('SKIFSKCELARKLKSMGMDGFHGYSLANWVCMAEYESNFNTQAFNGRNSNGSSDYGIFQLNSKWWCKSNSHSSANACNIMCSKFLDDNIDDDIACAKRVVKDPNGMSAWVAWVKHCKGKDLSKYLASCNL', 'soluble'),
  ('MNSEQQQTVFLCVSYLLSYPDEQWAESLPDCLDAIRSLDDETVRAPLLAFAEQINSIPARQRMEQYVETFDFGKKTNLYLTYMTNGEQRERGIELVALKARYQAAGFAVSDHELPDYLPLMLEWMAYADQEHTTALLADYAGHIREIGDRLAAAGSPYAQLFDALNHTFTQLGVTPLPKGGATAWPANFSG', 'not soluble'),
  ('MGSDKIHHHHHHMQGIAFQDAYPDDLSHCYGCGRNNEQGHQLKSYWRGEQTIAHFMPKPFHTAIPGFVYGGLIASLIDCHGTGSASAAAQRALEQAGEQLDEPPRFVTAALNIDYLAPTPMGVELELVGEIKEVKPRKVVVEIALSADGKLCARGHMVAVKMPETMAATSA', 'not soluble');
